Numbers sourced from PubChem BioAssay (NCI).

test system: CCRF-CEM leukemia; test: NCI tumour cell line growth inhibition, 48 h
Would you mind telling me the reported TGI of each entry?

molecule | TGI
O=P(O)(O)C(NCC(O)CN1CCOCC1)P(=O)(O)O (stereo unspecified) | > 100 µM
O=C(O)CN1CCNCCNCC1 | > 100 µM
NN/C(=N\S(=O)(=O)c1cc2ccccc2o1)Nc1ccc(Cl)cc1 | > 100 µM

Need TGI for each of these molecules.
1. COC(=O)c1c(OC(C)=O)ccc2c1c1c(OC(C)=O)c3ccccc3c(OC(C)=O)c1n2C
2. COc1cc2c(c(OC)c1OC)-c1cccc(=O)cc1C(NC(C)=O)CC2 (stereo unspecified)
3. COc1cccc2c1-c1ccccc1[C@H](Nc1ccccc1)[C@@]2(C)O
4. COc1cc(/C=N/Nc2ncnc3[nH]ncc23)ccc1O
5. O=C(O)CC(O)(c1ccccc1C(=O)O)c1cccc2ccccc12 (stereo unspecified)
6. CCN(Cc1ccncc1)c1ccc(CO)c(Cl)c1
7. O=S1CCN(Cc2ccc(-c3ccc4ncnc(Nc5ccc(OCc6cccc(F)c6)c(Cl)c5)c4c3)o2)CC1
8. N#C/C(=C\c1cc(F)cc(F)c1)c1ccccn1

Given back:
["60.5 µM", "> 100 µM", "50.9 µM", "> 25 µM", "> 100 µM", "> 100 µM", "24.8 µM", "> 100 µM"]

---

test system: PC-3 prostate; experiment: NCI tumour cell line growth inhibition, 48 h
Would you mind telling me the reported TGI of each entry?

Need TGI for each of these compounds.
1. COc1ccc2nc3ccccc3c(NCCN(C)CCCl)c2c1
2. O=[N+]([O-])c1cccnc1NCC1(CO)CCCC1
3. O=C(N=Nc1c(O)[nH]c2c(Cl)cc(Cl)cc12)c1ccccc1O
4. CNc1ccc(C(=O)CC(O)CCC(C)C2OC(=O)CC(O)CC(=O)CC(O)CC(O)CC(O)CC(O)CC3(O)CC(O)C(C(=O)NCCN(C)C)C(CC(OC4OC(C)C(O)C(NC(=O)CN5CCN(CCO)CC5)C4O)/C=C/C=C/C=C/C=C\C=C/C=C/C=C/C2C)O3)cc1 (centres undefined)

Given back:
["2.24 µM", "37.8 µM", "29 µM", "> 50 µM"]

---

system: UO-31 renal; assay: NCI tumour cell line growth inhibition, 48 h
value_type: GI50

Here are 5 compounds together with their reported answers.
compound | target_desc | reading
COc1ccc(/C=C/c2nnc(/C=C/c3ccc(OC)c(OC)c3)o2)cc1OC | UO-31 renal | 4.78 µM
NS(=O)(=O)N(c1cc(C(F)(F)F)cc(C(F)(F)F)c1)C1CCN(Cc2ccc(F)cc2)CC1 | UO-31 renal | 3.67 µM
O=C(NCCCCNC(=O)OCc1ccc2c(Cl)cc(Cl)c(O)c2n1)OCc1ccc2c(Cl)cc(Cl)c(O)c2n1 | UO-31 renal | 1.65 µM
C=C1C(=O)O[C@H]2[C@H]1CC/C(COC(=O)CCCCCCC(=O)OC/C1=C/CC[C@@]3(C)O[C@H]3[C@H]3OC(=O)C(=C)[C@@H]3CC1)=C\CC[C@@]1(C)O[C@@H]21 | UO-31 renal | 1.58 µM
CCCCCCCCc1ccc(OCCOCC[N+](C)(C)CC)cc1 (tested in a mixture with another compound) | UO-31 renal | 17.5 µM

Need GI50 for each of these compounds.
1. COc1cc(C2=NNC(c3ccc(N(C)C)cc3)C2)cc(OC)c1OC (centres undefined)
2. COc1ccc(NCc2cc(OC)c(OC)c(OC)c2)cc1
3. Cn1ncc2c(Sc3ccc(Cl)cc3)ncnc21
4. COC1=CC(c2ccc[nH]2)=N/C1=C\c1[nH]c(C)c(C(=O)CCCCC(=O)NCc2ccccc2)c1C

Given back:
1. 4.75 µM
2. 2.79 µM
3. 5.53 µM
4. 2.26 µM

---

test system: MALME-3M melanoma; experiment: NCI tumour cell line growth inhibition, 48 h
value_type: TGI

Here are 5 molecules together with their reported answers.
molecule | target_desc | TGI
Cn1c(=O)c2nc3c4ccccc4c(=O)n(C)c3nc2n(C)c1=O | MALME-3M melanoma | > 100 µM
COc1cc(C=O)cc(/C=N/N=C/c2ccccc2O)c1O | MALME-3M melanoma | 18.1 µM
C/C(CCn1[nH]c(=O)ccc1=O)=N\N=C(N)N | MALME-3M melanoma | > 100 µM
Cc1ccc(-c2c(C#N)[n+](=O)c3cc(Cl)c(Cl)cc3n2[O-])cc1 | MALME-3M melanoma | 25.2 µM
CCOC(=O)CCC(C(=O)OCC)n1nnc2ccc(Nc3c(C)[n+]([O-])c4ccc(Cl)cc4[n+]3[O-])cc21 (stereo unspecified) | MALME-3M melanoma | > 100 µM

Need TGI for each of these molecules.
1. Cn1cc(-c2nc3c(F)cc4[nH]ncc4c3c3c2CCCC3)c(C(F)(F)F)n1
2. C=Cc1ccccc1 (tested in a mixture with another compound)
3. O=C(N/N=C(/COc1ccccc1Cl)N=Cc1cccnc1)c1ccncc1
4. COc1ccc(=[O+]C)c2nssc1-2

Given back:
["34.2 µM", "> 75 µg/mL", "> 100 µM", "> 100 µM"]

---

test system: RPMI-8226 leukemia; experiment: NCI tumour cell line growth inhibition, 48 h
Would you mind telling me the reported TGI of each entry?
Numbers only, in µM.

compound | TGI [µM]
CCOC(=O)CCC(C(=O)OCC)n1nnc2ccc(Nc3c(C)[n+]([O-])c4ccc(Cl)cc4[n+]3[O-])cc21 (stereo not given) | 88.3

Need TGI for each of these compounds.
1. CN(C)CCNC(=O)c1ccc(Cl)c2ccc(-c3ccccc3)nc12
2. Cc1ccc(Nc2nc3nc[nH]c3c(=O)[nH]2)cc1CO
3. COc1ccc(NC(=S)N/N=C/c2cccc(C)n2)cc1
4. CC(=O)c1sc2c(c1OC(=O)c1ccc(Cl)cc1Cl)c(=O)n(-c1ccccc1)c(=S)n2-c1ccccc1
5. Nc1ncnc2c1ncn2C1OC(CSCc2ccc(Cl)cc2)C(O)C1O (stereo not given)

Given back:
1: 7.83; 2: 33.7; 3: 62.1; 4: 0.64; 5: 67.3

---

system: OVCAR-5 ovarian; experiment: NCI tumour cell line growth inhibition, 48 h
value_type: TGI

Here are 4 compounds together with their reported answers.
compound | TGI
Cc1c2ccccc2cc2nc3ccccc3n12 | > 10 µM
CCOC(=O)NC1C2CC(=O)C(O2)C1OCc1ccccc1 (stereo not drawn) | > 100 µM
N#CCCN(CCCN(C(=O)N(c1ccccc1)c1ccccc1)c1ccccc1)C(=O)Nc1ccccc1 | > 100 µM
Cc1[nH]c2nccn2c(=O)c1CCCl | > 100 µM

Need TGI for each of these compounds.
1. CCOc1ccccc1NC(=O)CC1Sc2ccccc2NC1=O (stereo not drawn)
2. O=C1/C(=C/c2ccccc2)CN(C(=O)C(F)(F)F)C/C1=C\c1ccccc1
3. COC1CC2C3/C(=N/Nc4ccc([N+](=O)[O-])cc4[N+](=O)[O-])CCC2(C)C3C1 (stereo not drawn)
4. N=[N+]=NC1C(O)C(CO)OC1n1cnc2c(N)ncnc21 (stereo not drawn)

Given back:
1. > 100 µM
2. 8.37 µM
3. > 10 µM
4. > 100 µM

---

tested on: UACC-62 melanoma; test: NCI tumour cell line growth inhibition, 48 h
value_type: TGI

compound | TGI
COP(C)(=O)C1=CCN(C(=O)OCC[Si](C)(C)C)CC1 (stereo not given) | > 100 µM

Need TGI for each of these compounds.
1. O=C(N=Nc1c(O)[nH]c2c(Cl)cc(Cl)cc12)c1ccccc1O
2. COc1ccc(/C=C(\C#N)c2nc3ccccc3c(=O)[nH]2)cc1

Given back:
24.8 µM
> 100 µM

Need TGI for each of these compounds.
1. O=C1/C(=C/c2ccccc2)CN(C(=O)C(F)(F)F)C/C1=C\c1ccccc1
2. CC1(C)SC2C(NC(=O)C(C(=O)O)c3ccccc3)C(=O)N2C1C(=O)O (stereo not given)

Given back:
1: 3.76 µM; 2: > 100 µM

---

Would you mind telling me the reported TGI of each entry?
system: UACC-257 melanoma; test: NCI tumour cell line growth inhibition, 48 h

Here are 5 compounds together with their reported answers.
compound | value_type | reading
COP(C)(=O)C1=CCN(C(=O)OCC[Si](C)(C)C)CC1 (stereo unspecified) | TGI | > 100 µM
CS(=O)(=O)Nc1cc(-c2ccc3ncnc(Nc4ccc5c(cnn5Cc5cccc(F)c5)c4)c3c2)cnc1Cl | TGI | 4.47 µM
O=C(N/S(=N/S(=O)(=O)c1ccc(Br)cc1)C(Cl)(Cl)Cl)c1ccccc1 (stereo unspecified) | TGI | > 100 µM
O=C(/C=C/c1ccsc1)c1ccc(Cl)cc1 | TGI | > 100 µM
CC(C)(/C=N\O)NO | TGI | > 10 µM

Asked: TGI lookup needed for Cc1nnc(N)nc1C/C=C/C(Sc1ccc(Cl)cc1)c1ccccc1 (stereo unspecified) , thanks.
Given back: 17 µM
